test system: Leishmania mexicana; assay: Effective dose was determined for extracellular promastigotes of Leishmania mexicana LV4 at 72 h; assay type: functional; conditions: read-out: ED50 (the source's name)
So I've got a bunch of compounds here, and I need their EC50 values.
Numbers only, in nM.

Below, each entry is followed by its recorded EC50 result.
{"Compound": "CC(C)(C)[C@H]1CC[C@H](CC2=C(O)C(=O)c3ccccc3C2=O)CC1", "EC50 (nM)": 4}
{"Compound": "CC(C)(C)C1CCC(CC2=C(OP(=O)(O)O)C(=O)c3ccccc3C2=O)CC1 (stereo not drawn)", "EC50 (nM)": 39}

## Task Reported EC50, compound CC(C)(C)C1CCC(CC2=C(OCOP(=O)(O)O)C(=O)c3ccccc3C2=O)CC1 (stereo not drawn) : ____
## Result 10

====

assay: Aqueous Solubility at pH 5; type: physicochemical
Assignment: determine reported solubility for the given molecules.

Previously resolved entries follow.
{"Molecule": "CC(C)(C)C1CCC(CC2=C(OP(=O)(O)O)C(=O)c3ccccc3C2=O)CC1 (stereo not drawn)", "solubility": "> 3500 µg/mL"}
{"Molecule": "CC(C)(C)C1CCC(CC2=C(OCOP(=O)(O)O)C(=O)c3ccccc3C2=O)CC1 (stereo not drawn)", "solubility": "> 3500 µg/mL"}

## Task Given the entry CC(C)(C)[C@H]1CC[C@H](CC2=C(O)C(=O)c3ccccc3C2=O)CC1 , report its measured solubility.
## Result < 0.03 µg/mL

====

Provide the reported pEC50 of each item.
tested on: Leishmania panamensis; test: Effective dose was determined for intracellular amastigotes of Leishmania panamensis BOYNTON at 72 hr in infected macrophages at 34C (experiment 1); type: functional; settings: read-out: ED50 (the source's name)
Numbers only, as −log10 of the molar value.

{"Compound": "CC(C)(C)[C@H]1CC[C@H](CC2=C(O)C(=O)c3ccccc3C2=O)CC1 [BUPARVAQUONE]", "Assayed System": "Leishmania panamensis", "Reported": 6.43}

## Task Which pEC50 is reported for this compound? CC(C)(C)C1CCC(CC2=C(OP(=O)(O)O)C(=O)c3ccccc3C2=O)CC1 (stereo not drawn)
## Result 6.26

====

system: Leishmania donovani; experiment: Effective dose was determined for extracellular promastigotes of Leishmania donovani L82 at 72 h; assay type: functional; settings: read-out: ED50 (the source's name)
Observation Type: EC50
The reply should consist of the numeric value with the unit placed after it.

For each of the items listed, what is its EC50?
1. CC(C)(C)C1CCC(CC2=C(OCOP(=O)(O)O)C(=O)c3ccccc3C2=O)CC1 (stereo not drawn)
2. CC(C)(C)[C@H]1CC[C@H](CC2=C(O)C(=O)c3ccccc3C2=O)CC1 [BUPARVAQUONE]
3. CC(C)(C)C1CCC(CC2=C(OP(=O)(O)O)C(=O)c3ccccc3C2=O)CC1 (stereo not drawn)

## Result
["3 nM", "6 nM", "9 nM"]

====

test system: Leishmania aethiopica; test: Effective dose was determined for intracellular amastigotes of Leishmania aethiopica Khartoum at 72 hr in infected macrophages at 34C (experiment 1); type: functional; conditions: read-out: ED50 (the source's name)
Observation Type: pEC50
Numbers only, as −log10 of the molar value.

Solved entries:
{"Compound": "CC(C)(C)C1CCC(CC2=C(OCOP(=O)(O)O)C(=O)c3ccccc3C2=O)CC1 (stereo not drawn)", "Assayed System": "Leishmania aethiopica", "pEC50": 5.78}
{"Compound": "CC(C)(C)C1CCC(CC2=C(OP(=O)(O)O)C(=O)c3ccccc3C2=O)CC1 (stereo not drawn)", "Assayed System": "Leishmania aethiopica", "pEC50": 5.63}

Consider the additional compound presented here.
## Task // pEC50 lookup, key: CC(C)(C)[C@H]1CC[C@H](CC2=C(O)C(=O)c3ccccc3C2=O)CC1
## Result 6.20

====

test: Ionization constant (pKa) was determined; format: physicochemical
Would you mind telling me the reported pKa of each entry?
Numbers only.

{"Compound": "CC(C)(C)[C@H]1CC[C@H](CC2=C(O)C(=O)c3ccccc3C2=O)CC1", "Reported": 5.7}
{"Compound": "CC(C)(C)C1CCC(CC2=C(OP(=O)(O)O)C(=O)c3ccccc3C2=O)CC1 (stereo not drawn)", "Reported": 2.68}

Switching to the query record.
## Task Need pKa of CC(C)(C)C1CCC(CC2=C(OCOP(=O)(O)O)C(=O)c3ccccc3C2=O)CC1 (stereo not drawn) , thanks.
## Result 2.28

====

experiment: Distribution Coefficient at pH 5; assay type: physicochemical; settings: octanol/water
Observation Type: logD
One number for each entry.

Hey, can you go through the list below and give me logD for every item?
1. CC(C)(C)C1CCC(CC2=C(OP(=O)(O)O)C(=O)c3ccccc3C2=O)CC1 (configuration not stated)
2. CC(C)(C)C1CCC(CC2=C(OCOP(=O)(O)O)C(=O)c3ccccc3C2=O)CC1 (configuration not stated)

## Result
1. 1.27
2. 1.83

====

experiment: Distribution Coefficient at pH 7.4; format: physicochemical; conditions: octanol/water, read-out: logD
Observation Type: logD
Give bare numbers.

## Task Return reported logD; argument: CC(C)(C)C1CCC(CC2=C(OP(=O)(O)O)C(=O)c3ccccc3C2=O)CC1 (stereo unspecified)
## Result 0.47

====

For each of the molecules below, state its half-life.
test: Half-life for rate of hydrolysis was determined at pH 7.4; assay type: ADME; conditions: buffer

{"Molecule": "CC(C)(C)C1CCC(CC2=C(OCOP(=O)(O)O)C(=O)c3ccccc3C2=O)CC1 (configuration not stated)", "half-life": "0.5 h"}

Here's the next entry for you.
## Task Fill in: half-life of CC(C)(C)C1CCC(CC2=C(OP(=O)(O)O)C(=O)c3ccccc3C2=O)CC1 (configuration not stated) is ___
## Result 17 h

====

assay: Aqueous Solubility at pH 3; type: physicochemical
Consider the following compounds; for each one, report its solubility.

{"Compound": "CC(C)(C)C1CCC(CC2=C(OCOP(=O)(O)O)C(=O)c3ccccc3C2=O)CC1 (stereo not drawn)", "solubility": "> 3500 µg/mL"}
{"Compound": "CC(C)(C)[C@H]1CC[C@H](CC2=C(O)C(=O)c3ccccc3C2=O)CC1", "solubility": "< 0.03 µg/mL"}

Next item in the queue.
## Task Entry CC(C)(C)C1CCC(CC2=C(OP(=O)(O)O)C(=O)c3ccccc3C2=O)CC1 (stereo not drawn) has what solubility?
## Result > 3500 µg/mL

====

test: Distribution Coefficient at pH 7.4; format: physicochemical; conditions: octanol/water
Observation Type: logD

## Task // returns reported logD for input CC(C)(C)C1CCC(CC2=C(OCOP(=O)(O)O)C(=O)c3ccccc3C2=O)CC1 (stereo unspecified)
## Result 1.16

====

Kindly supply the reported EC50 values for the records listed here.
test system: Leishmania amazonensis; test: Effective dose was determined for intracellular amastigotes of Leishmania amazonensis LV81 at 72 hr in infected macrophages at 34C (experiment 1); assay type: functional; conditions: read-out: ED50 (the source's name)
Numbers only, in µM.

Some solved entries appear below for comparison.
{"Molecule": "CC(C)(C)[C@H]1CC[C@H](CC2=C(O)C(=O)c3ccccc3C2=O)CC1 [BUPARVAQUONE]", "EC50 / µM": 5.5}
{"Molecule": "CC(C)(C)C1CCC(CC2=C(OCOP(=O)(O)O)C(=O)c3ccccc3C2=O)CC1 (stereo not drawn)", "EC50 / µM": 8.81}

Turning now to a further record.
## Task Query (molecule): CC(C)(C)C1CCC(CC2=C(OP(=O)(O)O)C(=O)c3ccccc3C2=O)CC1 (stereo not drawn) ; field requested: EC50
## Result 15.7
